# target.of.assay: T1, human fibrin (human fibrinogen coated on the plate and treated with thrombin) (human, UniProt P02671 36-629; P02675 45-491; P02679 27-437)
# T1 construct: Made on the plate: coated human fibrinogen (Sigma) treated with 1.0 U/mL thrombin, CaCl2 and L-cysteine
# T1 sequence (looked up) 1: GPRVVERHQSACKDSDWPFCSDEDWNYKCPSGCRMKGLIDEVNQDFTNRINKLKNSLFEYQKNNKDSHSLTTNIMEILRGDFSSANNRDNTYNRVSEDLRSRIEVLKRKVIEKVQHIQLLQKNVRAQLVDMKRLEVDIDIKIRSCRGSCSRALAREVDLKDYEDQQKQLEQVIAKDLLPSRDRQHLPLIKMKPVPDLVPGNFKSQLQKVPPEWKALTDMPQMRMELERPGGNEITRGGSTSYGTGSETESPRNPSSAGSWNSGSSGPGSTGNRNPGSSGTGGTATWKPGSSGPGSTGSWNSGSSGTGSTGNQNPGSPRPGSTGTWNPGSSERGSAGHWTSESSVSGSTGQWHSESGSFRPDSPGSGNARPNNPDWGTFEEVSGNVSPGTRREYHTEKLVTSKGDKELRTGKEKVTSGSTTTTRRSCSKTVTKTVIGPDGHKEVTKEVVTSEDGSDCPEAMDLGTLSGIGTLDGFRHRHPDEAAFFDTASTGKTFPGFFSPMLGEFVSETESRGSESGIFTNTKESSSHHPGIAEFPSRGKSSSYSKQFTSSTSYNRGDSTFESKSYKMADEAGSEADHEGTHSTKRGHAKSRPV
# T1 sequence (looked up) 2: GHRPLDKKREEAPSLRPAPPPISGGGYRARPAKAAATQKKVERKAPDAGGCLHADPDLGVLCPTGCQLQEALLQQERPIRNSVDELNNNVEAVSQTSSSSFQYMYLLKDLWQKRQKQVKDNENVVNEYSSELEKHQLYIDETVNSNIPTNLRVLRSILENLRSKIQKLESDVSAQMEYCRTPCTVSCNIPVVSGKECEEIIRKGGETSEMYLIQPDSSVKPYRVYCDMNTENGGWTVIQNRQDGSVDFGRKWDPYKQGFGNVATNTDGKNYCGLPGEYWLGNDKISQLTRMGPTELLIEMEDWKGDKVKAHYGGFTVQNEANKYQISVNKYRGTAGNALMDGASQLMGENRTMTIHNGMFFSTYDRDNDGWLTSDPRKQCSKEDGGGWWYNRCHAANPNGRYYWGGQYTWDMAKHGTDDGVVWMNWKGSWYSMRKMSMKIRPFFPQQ
# T1 sequence (looked up) 3: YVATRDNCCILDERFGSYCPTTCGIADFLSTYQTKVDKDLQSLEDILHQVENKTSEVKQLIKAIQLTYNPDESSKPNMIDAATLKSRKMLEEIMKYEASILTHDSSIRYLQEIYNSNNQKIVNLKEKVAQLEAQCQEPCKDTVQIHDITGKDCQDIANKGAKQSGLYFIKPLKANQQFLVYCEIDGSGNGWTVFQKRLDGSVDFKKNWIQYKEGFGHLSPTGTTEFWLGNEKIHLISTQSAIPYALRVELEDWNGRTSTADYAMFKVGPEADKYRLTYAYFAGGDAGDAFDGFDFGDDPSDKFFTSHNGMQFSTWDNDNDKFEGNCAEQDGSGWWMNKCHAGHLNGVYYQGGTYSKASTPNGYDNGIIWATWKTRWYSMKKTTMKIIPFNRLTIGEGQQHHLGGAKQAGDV
# protocol.description: single colony ELISA, secreted scFv on coated fibrin, anti-E-tag-HRP
quantity.measured: OD450_Fibrin (OD450)
Respond with the bare value in OD450.

-- ask Please report the recorded OD450_Fibrin for scFv clone 8F2 (scFv, V domains shown, Tested as a secreted scFv with E-tag from the phage library) VH: EVQLVESGGGLVQPGGSLRLSCAASGFTINNYGIHWVRQAPGKGLEWVAGIWPYWGYTYYADSVKGRFTISADTSKNTAYLQMNSLRAEDTAVYYCARFDSNSYSSYSDGFMDYWGQGTLVTVSS VL: DIQMTQSPSSLSASVGDRVTITCRASQDVDNSVAWYQQKPGKAPKLLISSARSLYSGVPSRFSGSGSGTDFTLTISSLQPEDFATYYCQQYYNYPITFGQGTKVEIKR .
-- reply 0.527
